System: Mycobacterium tuberculosis
Assay: Cornell M. t heat shock assay; note: in the data most compounds retested in dose-response had high values
Type: functional, organism-based
Parameters: dose or concentration left out as unconfirmed
The whole screen tested about 69,000 compounds, of which about 950 (1.4%) showed an effect of 50% or more. The sample holds strong results, similar compounds and a random draw of the others, so the mix is not that of the screen.
Measurement Label: Percent Effect (%)
Return type: number; implicit unit %.

Here are 9 compounds together with their reported answers.
{"Compound": "O=C(O)C(F)(F)F.O=C(O)C(F)(F)F.c1cncc(O[C@@H]2CC[C@H]3[C@H]2OCCN3C2CCCC2)c1", "Percent Effect, %": -35.82}
{"Compound": "O=C(O)c1cc(/C=C/c2ccccc2)ncn1", "Percent Effect, %": -25.85}
{"Compound": "CC(C)(C)c1cn2c(n1)C(CNCc1cnn3ccccc13)CCC2 (stereo not given)", "Percent Effect, %": 15.66}
{"Compound": "CC(C)C(=O)N1CCN(Cc2ccccn2)CC2(CC(=O)N(C)C2)C1.O=C(O)C(F)(F)F.O=C(O)C(F)(F)F (stereo not given)", "Percent Effect, %": -3.72}
{"Compound": "Cn1cccc1CNCC1CCCn2cc(C(C)(C)C)nc21 (stereo not given)", "Percent Effect, %": 1.286}
{"Compound": "O=C(O)c1cc(/C=C/c2ccc3ccccc3c2)ncn1", "Percent Effect, %": 55.05}
{"Compound": "CN(C)C(CNC(=O)c1cc2c([nH]c1=O)CCCC2=O)c1ccsc1 (stereo not given)", "Percent Effect, %": -5.178}
{"Compound": "COCCN1CCO[C@H]2CN(Cc3cccc(C)n3)C[C@H]21.O=C(O)C(F)(F)F.O=C(O)C(F)(F)F", "Percent Effect, %": -1.731}
{"Compound": "CC(C)n1nc(CN2CCOCC2)c2c1CN(C(=O)c1ccno1)C2.O=C(O)C(F)(F)F", "Percent Effect, %": 17.65}

Just so you know, measured Percent Effect for `O=C(O)c1cc(/C=C/c2cccc3ccccc23)ncn1` came out at -14.83

Where do these numbers come from? They come from ChEMBL document CHEMBL3988442.
